system: eIF2α phosphorylation (eIF2•GTP•Met-tRNAi ternary complex; HRI activation); experiment: surrogate dual luciferase eIF2α phosphorylation (ternary complex) assay; type: cell-based, human; conditions: 30 μM compound
quantity measured: Emax (F/R)

O=C(Nc1cccc(Br)c1)N[C@H]1CC[C@H](OCc2c(F)cccc2F)CC1    0.98
CSc1ccc(NC(=O)N[C@H]2CC[C@H](OCc3c(F)cccc3F)CC2)cc1 [II-10p]    1.07
O=C(Nc1ccccc1Br)N[C@H]1CC[C@H](OCc2c(F)cccc2F)CC1    0.96
COc1ccccc1NC(=O)N[C@H]1CC[C@H](OCc2c(F)cccc2F)CC1    0.84
O=C(Nc1cccc(C(F)(F)F)c1)N[C@H]1CC[C@H](OCc2c(F)cccc2F)CC1    1.11
COc1ccc(NC(=O)N[C@H]2CC[C@H](OCc3c(F)cccc3F)CC2)cc1    0.68
O=C(Nc1ccc(Br)cc1)N[C@H]1CC[C@H](OCc2c(F)cccc2F)CC1    0.73
O=C(Nc1ccc(OC(F)(F)F)cc1)N[C@H]1CC[C@H](OCc2c(F)cccc2F)CC1    0.98
O=C(Nc1cccc(I)c1)N[C@H]1CC[C@H](OCc2c(F)cccc2F)CC1    0.72
CSc1cccc(NC(=O)N[C@H]2CC[C@H](OCc3c(F)cccc3F)CC2)c1 [II-10m]    1.06
Cc1cccc(NC(=O)N[C@H]2CC[C@H](OCc3c(F)cccc3F)CC2)c1    0.81
COc1cccc(NC(=O)N[C@H]2CC[C@H](OCc3c(F)cccc3F)CC2)c1    0.74
O=C(Nc1ccccc1C(F)(F)F)N[C@H]1CC[C@H](OCc2c(F)cccc2F)CC1    0.64
O=C(Nc1ccc(I)cc1)N[C@H]1CC[C@H](OCc2c(F)cccc2F)CC1    0.67
O=C(Nc1ccccc1F)N[C@H]1CC[C@H](OCc2c(F)cccc2F)CC1    0.89
O=C(Nc1ccccc1)N[C@H]1CC[C@H](OCc2c(F)cccc2F)CC1    0.81
O=C(Nc1cccc(F)c1)N[C@H]1CC[C@H](OCc2c(F)cccc2F)CC1    0.67
O=C(Nc1ccccc1I)N[C@H]1CC[C@H](OCc2c(F)cccc2F)CC1    0.81

----------
test system: HEP B3; assay: cell proliferation assay, HEP B3; type: cell-based; details: HEP B3, Liver
quantity measured: IC50 (nM)

O=C(Nc1cccc(C(F)(F)F)c1)NC1CCC(Oc2ccc(OC(F)(F)F)cc2)CC1 (stereo not shown) [Compound I-17]    1800

----------
test system: Huh-7; assay: cell proliferation assay, Huh-7; assay type: cell-based; conditions: Homo sapiens; Huh-7, Liver
pIC50: −log10 of the molar value.
quantity measured: pIC50

O=C(Nc1cccc(C(F)(F)F)c1)NC1CCC(Oc2ccc(OC(F)(F)F)cc2)CC1 (stereo not shown) [Compound I-17]    5.68

----------
system: NIH/3T3 fibroblast cells; test: cell proliferation (SRB) assay, NIH/3T3; type: cell-based; details: Mus musculus, NIH3T3; NIH/3T3, Table 5; Mean±S.E.M.; read-out: IC50
pIC50: −log10 of the molar value.
quantity measured: pIC50

O=C(Nc1cccc(C(F)(F)F)c1)NC1CCC(Oc2ccc(OC(F)(F)F)cc2)CC1 (stereo not shown) [Compound I-17]    5.47
